Data origin: ChEMBL document CHEMBL2169825

Here the recorded IC50 is given for each entry.
Tested on: PBMC
Test: Cytotoxicity against human PBMC cells after 24 hrs by Alamar Blue assay
Format: cell-based

- molecular string: "COc1ccc(S(=O)(=O)N2Cc3cc(C#N)ccc3N(Cc3cncn3C)C[C@H]2Cc2ccc(OS(=O)(=O)C(F)(F)F)cc2)cc1"
  IC50: "> 10 µM"
- molecular string: "CCCCOc1ccc(C[C@@H]2CN(Cc3cncn3C)c3ccc(C#N)cc3CN2S(=O)(=O)c2ccc(OC)cc2)cc1"
  IC50: "8.69 µM"
- molecular string: "COc1ccc(S(=O)(=O)N2Cc3cc(C#N)ccc3N(Cc3cncn3C)C[C@H]2Cc2ccccc2)cc1"
  IC50: "> 10 µM"
- molecular string: "CCN(CC)C(=O)Oc1ccc(C[C@@H]2CN(Cc3cncn3C)c3ccc(C#N)cc3CN2S(=O)(=O)c2ccc(OC)cc2)cc1"
  IC50: "> 10 µM"

====

Assay: Inhibition of RabGGTase using [3H]GGPP as substrate after 1 hr by scintillation proximity assay
pIC50: −log10 of the molar value.
metric name: pIC50

- molecular string: "COc1ccc(S(=O)(=O)N2Cc3cc(-c4ccc(C=O)o4)ccc3N(Cc3cncn3C)C[C@H]2Cc2ccc(-c3ccc(Cl)cc3)cc2)cc1"
  test result: 5.65
- molecular string: "COc1ccc(S(=O)(=O)N2Cc3cc(-c4ccnc(OC)c4)ccc3N(Cc3cncn3C)C[C@H]2Cc2ccc(O)cc2)cc1"
  test result: 8.26
- molecular string: "CCCCOc1ccc(C[C@@H]2CN(Cc3cncn3C)c3ccc(C#N)cc3CN2S(=O)(=O)c2ccc(OC)cc2)cc1"
  test result: 6.81
- molecular string: "COc1ccc(S(=O)(=O)N2Cc3cc(C#N)ccc3N(Cc3cncn3C)C[C@H]2Cc2ccc(-c3cccnc3)cc2)cc1"
  test result: 7.96
- molecular string: "COc1ccc(S(=O)(=O)N2Cc3cc(-c4ccc(C=O)o4)ccc3N(Cc3cncn3C)C[C@H]2Cc2ccc(OC(=O)NCc3ccccc3)cc2)cc1"
  test result: 5.81
- molecular string: "COc1ccc(S(=O)(=O)N2Cc3cc(-c4ccc(C#N)o4)ccc3N(Cc3cncn3C)C[C@H]2Cc2ccc(OC(=O)NCc3ccccc3)cc2)cc1"
  test result: 6.59
- molecular string: "CCCCCCNC(=O)c1ccc2c(c1)CN(S(=O)(=O)c1ccc(OC)cc1)[C@H](Cc1ccc(O)cc1)CN2Cc1cncn1C"
  test result: 7.15

====

Here the recorded IC50 is given for each entry.
Assay: Inhibition of RabGGTase using [3H]GGPP as substrate after 1 hr by scintillation proximity assay

- molecular string: "COc1ccc(S(=O)(=O)N2Cc3cc(-c4cccc(C#N)c4)ccc3N(Cc3cncn3C)C[C@H]2Cc2ccc(O)cc2)cc1"
  IC50: "22.5 nM"
- molecular string: "COc1ccc(S(=O)(=O)N2Cc3cc(-c4ccc(C#N)o4)ccc3N(Cc3cncn3C)C[C@H]2Cc2ccc(-c3cccnc3)cc2)cc1"
  IC50: "37 nM"
- molecular string: "COc1ccc(S(=O)(=O)N2Cc3cc(-c4ccc(C#N)o4)ccc3N(Cc3cncn3C)C[C@H]2Cc2ccc(Nc3ccccc3)cc2)cc1"
  IC50: "1060 nM"
- molecular string: "COc1ccc(S(=O)(=O)N2Cc3cc(Nc4ccccc4)ccc3N(Cc3cncn3C)C[C@H]2Cc2ccc(O)cc2)cc1"
  IC50: "246 nM"
- molecular string: "COc1ccc(S(=O)(=O)N2Cc3cc(-c4ccnc(OC)c4)ccc3N(Cc3cncn3C)C[C@H]2Cc2ccc(Nc3ccccc3)cc2)cc1"
  IC50: "5720 nM"
- molecular string: "COc1ccc(S(=O)(=O)N2Cc3cc(C#N)ccc3N(Cc3cncn3C)C[C@H]2Cc2ccc(OC/C=C(\\C)CCC=C(C)C)cc2)cc1"
  IC50: "23.5 nM"
- molecular string: "COc1ccc(S(=O)(=O)N2Cc3cc(-c4ccnc(OC)c4)ccc3N(Cc3cncn3C)C[C@H]2Cc2ccc(OCc3ccccc3)cc2)cc1"
  IC50: "5240 nM"

====

Assay: Inhibition of RabGGTase using [3H]GGPP as substrate after 1 hr by scintillation proximity assay
pIC50: −log10 of the molar value.
metric name: pIC50

- molecular string: "COc1ccc(S(=O)(=O)N2Cc3cc(-c4ccnc(OC)c4)ccc3N(Cc3cncn3C)C[C@H]2Cc2ccc(-c3cccnc3)cc2)cc1"
  metric name: "pIC50"
  test result: 6.92
- molecular string: "COc1ccc(S(=O)(=O)N2Cc3cc(C#N)ccc3N(Cc3cncn3C)C[C@H]2Cc2ccccc2)cc1"
  metric name: "pIC50"
  test result: 8.19
- molecular string: "COc1ccc(S(=O)(=O)N2Cc3cc(-c4ccc(Cl)cc4)ccc3N(Cc3cncn3C)C[C@H]2Cc2ccc(O)cc2)cc1"
  metric name: "pIC50"
  test result: 6.15

====

Here the recorded pIC50 is given for each entry.
Assay: Inhibition of FTase using NBD-GPP as substrate after 10 mins by solution based fluorometric assay
pIC50: −log10 of the molar value.
metric name: pIC50

- molecular string: "COc1ccc(S(=O)(=O)N2Cc3cc(-c4ccc(C=O)o4)ccc3N(Cc3cncn3C)C[C@H]2Cc2ccc(OC(=O)NCc3ccccc3)cc2)cc1"
  metric name: "pIC50"
  relation qualifier: "<"
  test result: 5.01
- molecular string: "COc1ccc(S(=O)(=O)N2Cc3cc(-c4ccc(C=O)o4)ccc3N(Cc3cncn3C)C[C@H]2Cc2ccc(O)cc2)cc1"
  metric name: "pIC50"
  relation qualifier: "="
  test result: 8.15
- molecular string: "COc1ccc(S(=O)(=O)N2Cc3cc(-c4ccnc(OC)c4)ccc3N(Cc3cncn3C)C[C@H]2Cc2ccc(OCc3ccccc3)cc2)cc1"
  metric name: "pIC50"
  relation qualifier: "="
  test result: 5.59
- molecular string: "COc1ccc(S(=O)(=O)N2Cc3cc(-c4ccc(C#N)o4)ccc3N(Cc3cncn3C)C[C@H]2Cc2ccc(Nc3ccccc3)cc2)cc1"
  metric name: "pIC50"
  relation qualifier: "="
  test result: 5.92
- molecular string: "COc1ccc(S(=O)(=O)N2Cc3cc(-c4ccnc(OC)c4)ccc3N(Cc3cncn3C)C[C@H]2Cc2ccc(OC(=O)NCc3ccccc3)cc2)cc1"
  metric name: "pIC50"
  relation qualifier: "="
  test result: 6.49
- molecular string: "COc1ccc(S(=O)(=O)N2Cc3cc(C#N)ccc3N(Cc3cncn3C)C[C@H]2Cc2ccccc2)cc1"
  metric name: "pIC50"
  relation qualifier: "="
  test result: 8.22
- molecular string: "COc1ccc(S(=O)(=O)N2Cc3cc(-c4ccco4)ccc3N(Cc3cncn3C)C[C@H]2Cc2ccc(O)cc2)cc1"
  metric name: "pIC50"
  relation qualifier: "="
  test result: 7.09
- molecular string: "COc1ccc(S(=O)(=O)N2Cc3cc(C#N)ccc3N(Cc3cncn3C)C[C@H]2Cc2ccc(OCC=C(C)C)cc2)cc1"
  metric name: "pIC50"
  relation qualifier: "="
  test result: 7.82
- molecular string: "COc1ccc(S(=O)(=O)N2Cc3cc(-c4cccc(C#N)c4)ccc3N(Cc3cncn3C)C[C@H]2Cc2ccc(O)cc2)cc1"
  metric name: "pIC50"
  relation qualifier: "="
  test result: 7.46
- molecular string: "COc1ccc(S(=O)(=O)N2Cc3cc(Nc4ccccc4)ccc3N(Cc3cncn3C)C[C@H]2Cc2ccc(O)cc2)cc1"
  metric name: "pIC50"
  relation qualifier: "="
  test result: 6.34
- molecular string: "CCCCCCNC(=O)c1ccc2c(c1)CN(S(=O)(=O)c1ccc(OC)cc1)[C@H](Cc1ccc(O)cc1)CN2Cc1cncn1C"
  metric name: "pIC50"
  relation qualifier: "="
  test result: 7.68
- molecular string: "COc1ccc(S(=O)(=O)N2Cc3cc(C#N)ccc3N(Cc3cncn3C)C[C@H]2Cc2ccc(OCc3ccccc3)cc2)cc1"
  metric name: "pIC50"
  relation qualifier: "="
  test result: 7.00
- molecular string: "COc1ccc(S(=O)(=O)N2Cc3cc(-c4ccc(C#N)o4)ccc3N(Cc3cncn3C)C[C@H]2Cc2ccc(-c3cccnc3)cc2)cc1"
  metric name: "pIC50"
  relation qualifier: "="
  test result: 6.96
- molecular string: "COc1ccc(S(=O)(=O)N2Cc3cc(C(=O)NCc4ccccc4)ccc3N(Cc3cncn3C)C[C@H]2Cc2ccc(O)cc2)cc1"
  metric name: "pIC50"
  relation qualifier: "="
  test result: 8.15
- molecular string: "COc1ccc(S(=O)(=O)N2Cc3cc(-c4ccc(C#N)o4)ccc3N(Cc3cncn3C)C[C@H]2Cc2ccc(O)cc2)cc1"
  metric name: "pIC50"
  relation qualifier: "="
  test result: 7.57
- molecular string: "CCCCOc1ccc(C[C@@H]2CN(Cc3cncn3C)c3ccc(C#N)cc3CN2S(=O)(=O)c2ccc(OC)cc2)cc1"
  metric name: "pIC50"
  relation qualifier: "="
  test result: 8.00

====

Here the recorded IC50 is given for each entry.
Assay: Inhibition of RabGGTase using NBD-FPP as substrate after 5 mins by fluorometric assay

- molecular string: "CCCCOc1ccc(C[C@@H]2CN(Cc3cncn3C)c3ccc(C#N)cc3CN2S(=O)(=O)c2ccc(OC)cc2)cc1"
  readout unit: "nM"
  IC50: 162
- molecular string: "COc1ccc(S(=O)(=O)N2Cc3cc(C#N)ccc3N(Cc3cncn3C)C[C@H]2Cc2ccc(OCC=C(C)C)cc2)cc1"
  readout unit: "nM"
  IC50: 39
- molecular string: "COc1ccc(S(=O)(=O)N2Cc3cc(C#N)ccc3N(Cc3cncn3C)C[C@H]2Cc2ccc(OC(=O)NCc3ccccc3)cc2)cc1"
  readout unit: "nM"
  IC50: 72.2
- molecular string: "CCCCCCNC(=O)Oc1ccc(C[C@@H]2CN(Cc3cncn3C)c3ccc(C#N)cc3CN2S(=O)(=O)c2ccc(OC)cc2)cc1"
  readout unit: "nM"
  IC50: 243
- molecular string: "COc1ccc(S(=O)(=O)N2Cc3cc(C#N)ccc3N(Cc3cncn3C)C[C@H]2Cc2ccccc2)cc1"
  readout unit: "nM"
  IC50: 724
- molecular string: "COc1ccc(S(=O)(=O)N2Cc3cc(C#N)ccc3N(Cc3cncn3C)C[C@H]2Cc2ccc(OC/C=C(\\C)CCC=C(C)C)cc2)cc1"
  readout unit: "nM"
  IC50: 2070
- molecular string: "COc1ccc(S(=O)(=O)N2Cc3cc(C#N)ccc3N(Cc3cncn3C)C[C@H]2Cc2ccc(OCc3ccccc3)cc2)cc1"
  readout unit: "nM"
  IC50: 441
- molecular string: "COc1ccc(S(=O)(=O)N2Cc3cc(-c4ccc(C=O)o4)ccc3N(Cc3cncn3C)C[C@H]2Cc2ccc(O)cc2)cc1"
  readout unit: "nM"
  IC50: 206
- molecular string: "COc1ccc(S(=O)(=O)N2Cc3cc(-c4ccc(C#N)o4)ccc3N(Cc3cncn3C)C[C@H]2Cc2ccc(OC(=O)NCc3ccccc3)cc2)cc1"
  readout unit: "nM"
  IC50: 41.6
- molecular string: "COc1ccc(S(=O)(=O)N2Cc3cc(-c4ccc(C=O)o4)ccc3N(Cc3cncn3C)C[C@H]2Cc2ccc(OC(=O)NCc3ccccc3)cc2)cc1"
  readout unit: "nM"
  IC50: 616
- molecular string: "COc1ccc(S(=O)(=O)N2Cc3cc(C#N)ccc3N(Cc3cncn3C)C[C@H]2Cc2ccc(O)cc2)cc1"
  readout unit: "nM"
  IC50: 1010
- molecular string: "COc1ccc(S(=O)(=O)N2Cc3cc(-c4ccc(C#N)o4)ccc3N(Cc3cncn3C)C[C@H]2Cc2ccc(O)cc2)cc1"
  readout unit: "nM"
  IC50: 62.5
- molecular string: "COc1ccc(S(=O)(=O)N2Cc3cc(C#N)ccc3N(Cc3cncn3C)C[C@H]2Cc2ccc(OS(=O)(=O)C(F)(F)F)cc2)cc1"
  readout unit: "nM"
  IC50: 18600
- molecular string: "COc1ccc(S(=O)(=O)N2Cc3cc(C#N)ccc3N(Cc3cncn3C)C[C@H]2Cc2ccc(-c3cccnc3)cc2)cc1"
  readout unit: "nM"
  IC50: 353
